tested on: CP266; experiment: qHTS profiling for inhibitors of Plasmodium falciparum proliferation (AID 504749); note: nearly all actives have a fitted effect of over 60% in size; settings: P. falciparum in erythrocytes, SYBR Green DNA, 72 h; series mostly up to 28.7 µM
Records with an inconclusive call do not appear. Active and inactive are the calls of the source. Calls come from the whole dose curve; as a rule, active = well fitted inhibition curve with a large enough effect; inconclusive = small, poorly fitted or top-dose-only effect; inactive = flat fitted curve, though single readings scatter.
OBSERVED_PROPERTY: outcome

The following molecules have reported results that may help.
QUERY: Entry CC(=O)SC[C@@H](Cc1ccccc1)C(=O)NCC(=O)OCc1ccccc1 : reported outcome = ?
RESULT: inactive

QUERY: Note, next up: Cn1c(=O)c2c(ncn2CCO)n(C)c1=O
RESULT: inactive

QUERY: Note, next up: CC(C)(C)C(=O)OCOC(=O)[C@@H]1N2C(=O)[C@@H](NC(=O)[C@H](N)c3ccccc3)[C@H]2SC1(C)C
RESULT: inactive

QUERY: Note, next up: OC[C@@H](O)[C@@H](O)[C@H](O)[C@H](O)CO
RESULT: inactive

QUERY: Note, next up: O=C(O)c1cc(=O)c2ccccc2o1
RESULT: inactive

QUERY: Note, next up: C[C@@H]1CCC[C@H](C)N1
RESULT: inactive

QUERY: Note, next up: CC(C(=O)O)c1ccc2c(c1)Cc1cccnc1O2 (configuration not stated)
RESULT: inactive

QUERY: Note, next up: CN(C/C=C/C#CC(C)(C)C)Cc1cccc2ccccc12
RESULT: inactive

QUERY: Note, next up: NS(=O)(=O)c1ccc(NC(=O)CCC(=O)O)cc1
RESULT: inactive

QUERY: Note, next up: OCc1ccc(Cl)cc1Cl
RESULT: inactive

Next:
QUERY: Entry CC(=O)NS(=O)(=O)c1ccc(N)cc1 : reported outcome = ?
RESULT: inactive

QUERY: Note, next up: O=S1(=O)OC(c2ccc(O)cc2)(c2ccc(O)cc2)c2ccccc21
RESULT: inactive
